- System: OVCAR-4 ovarian
- assay.summary: NCI tumour cell line growth inhibition, 48 h
metric: log10(TGI) (log10 of the value in µM)
Kindly note that the scale is log10 and the underlying TGI is in µM.

| compound | metric | value.measured |
| --- | --- | --- |
| Cc1cc(Br)c2nsnc2c1[N+](=O)[O-] | log10(TGI) | 1.24 |
| Nc1cccc(/C=C/CN2CCN(CCOC(c3ccccc3)c3ccccc3)CC2)c1 | log10(TGI) | 1.44 |

Give log10(TGI) for each of the items listed below.
1. COC(=O)c1c2c(c(C)[n+]([O-])c1C)C(=O)C=C(NCc1ccc(Br)cc1)C2=O
2. CC(C)(C)OC(=O)N1CCCC1C(=O)NCCNc1ccc(NCCNC(=O)C2CCCN2C(=O)OC(C)(C)C)c2c1C(=O)c1ccccc1C2=O (stereo not given)
3. NS(=O)(=O)c1ccc(N=Nc2ccc(O)c(O)c2)cc1

Result ::
0.02
1.71
1.46

Give log10(TGI) for each of the items listed below.
1. O=CN1CCN(C(=O)c2ccc(Cl)cc2)C1=S
2. Cc1ccc(S(=O)(=O)N/N=C2/C3C(CC2(C)C)C2(C)CCCC3(C)C2O)cc1 (stereo not given)
3. O=c1c(-c2ccc3c(c2)OCO3)coc2c(CO)c(O)ccc12
4. CC(=O)C1=C(C)N(c2ccc(C)cc2)C2(O)C=CC(=O)C3=C(O)c4ccccc4C(=O)C312 (stereo not given)
5. CCc1ccc(Oc2nccc(-c3c(-c4ccc(F)cc4)ncn3C3CCNCC3)n2)cc1
6. O=C1CC(NCCCNC2CC(=O)c3c(Br)sc(Br)c32)c2c(Br)sc(Br)c21 (stereo not given)
7. CC1=C(C(=O)Nc2cccc(C(F)(F)F)c2)C(c2ccccc2F)C(C(=O)Nc2cccc(C(F)(F)F)c2)=C(C)N1
8. COc1ccc2[nH]c3c(C)c4ccnc(NCCCN(C)CCCN)c4c(C)c3c2c1

Result ::
1: 1.55; 2: 1.64; 3: 1.26; 4: 1.56; 5: 1.11; 6: 1.10; 7: 1.15; 8: -0.35

Give log10(TGI) for each of the items listed below.
1. Cc1cc(NS(=O)(=O)c2ccc(NC(=O)COc3ccc(-c4cc5ccccc5[nH]4)cc3)cc2)no1
2. Cc1cc(O)c2c(c1)C(=O)C=C(Br)C2=O
3. O=C(CCCCCNC1=CC(=O)c2ccccc2C1=O)NCCC[Te]c1ccccc1
4. CCCCCCCCCCCCNC(=O)[C@H]1CSC(c2cc(Br)cs2)N1 (stereo not given in full)
5. Cc1ccn2c(-c3csc(Nc4cccc(O)c4)n3)c(C)nc2c1
6. COc1ccc(/C=C/c2ccnc3ccccc23)cc1

Result ::
0.60
1.38
0.88
0.29
1.73
1.30

Measured values drawn from PubChem BioAssay (NCI) for this set.
